Target: Orexin/Hypocretin receptor type 1 (Homo sapiens)
Assay: antagonists of human orexin 1 receptor (OX1R) (AID 485270)
Details: OX1R-expressing cells, FRET antagonist read-out; at 6.6 µM
Hit rate of the full screen: of about 330,000 compounds, about 5,800 (1.8%) were called active. Cut-off read from the data, not from the text of the source: active = inhibition mostly above about 38% (no sharp cut-off); inactive = mostly below about 40%. This excerpt belongs to a sample that is enriched for actives.
Mark one answer only. Choices: active, inactive

COc1cc(NC(=O)Nc2ccc(C)cc2)cc([N+](=O)[O-])c1 :: active

[Q] What is the recorded call for this molecule in the test? "COC(=O)c1ccc(NC(=O)Nc2ccc(C)cc2)cc1"
[A] inactive

[Q] What is the recorded call for this molecule in the test? "Cc1nnc2n1N=C(c1ccccc1)CS2"
[A] inactive

[Q] What is the recorded call for this molecule in the test? "CC(=O)c1ccc(NC(=O)Nc2ccc([N+](=O)[O-])cc2C)cc1"
[A] inactive

[Q] What is the recorded call for this molecule in the test? "O=c1c2cc(-c3ccccc3)sc2nc2n1N=C(c1cccs1)CS2"
[A] active

[Q] What is the recorded call for this molecule in the test? "COc1ccc(S(=O)(=O)N(C)C[C@H]2Oc3c(NC(=O)Nc4ccc5c(c4)OCO5)cccc3C(=O)N([C@H](C)CO)C[C@@H]2C)cc1"
[A] inactive

[Q] What is the recorded call for this molecule in the test? "c1csc(-c2cn3c(n2)SCC3)c1"
[A] inactive

[Q] What is the recorded call for this molecule in the test? "Nc1ncnc2c1ncn2[C@@H]1O[C@H](CNS(=O)(=O)c2ccc(-c3ccno3)s2)[C@@H](O)[C@H]1O"
[A] inactive

[Q] What is the recorded call for this molecule in the test? "O=C(N[C@@H]1C/C=C\C[C@@H](CC(=O)N(CCO)Cc2ccccc2)C(=O)N[C@H](Cc2ccccc2)COC1=O)OCC1c2ccccc2-c2ccccc21"
[A] inactive
